Every entry's value here was drawn from PubChem BioAssay AID793.

Reported inhibition by item:
Target: Neuropeptide Y receptor type 2 (Homo sapiens) (UniProt P49146)
Sequence (P49146 whole entry, looked up): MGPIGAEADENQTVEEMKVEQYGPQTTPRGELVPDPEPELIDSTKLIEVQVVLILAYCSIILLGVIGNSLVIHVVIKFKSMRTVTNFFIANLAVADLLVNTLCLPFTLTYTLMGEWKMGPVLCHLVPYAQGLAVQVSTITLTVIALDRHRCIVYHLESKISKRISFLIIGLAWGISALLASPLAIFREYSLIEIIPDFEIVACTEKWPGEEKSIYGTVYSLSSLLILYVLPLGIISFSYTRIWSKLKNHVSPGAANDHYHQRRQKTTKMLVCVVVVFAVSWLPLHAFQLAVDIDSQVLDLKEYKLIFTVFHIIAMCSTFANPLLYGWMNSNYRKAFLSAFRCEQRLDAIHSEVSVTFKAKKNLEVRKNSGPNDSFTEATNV
Assay: blockers of human neuropeptide Y Y2 receptor – cell-based, primary screen (AID 793);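 further: 0% = vehicle with agonist challenge and 100% = reference antagonist with challenge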
Conditions: NPY-Y2 expressing cells, antagonist mode; at 2.7 µM; stronger effect = higher value
The whole screen tested about 140,000 compounds, of which about 1,400 (1%) were called active. This excerpt belongs to a sample that is enriched for actives.
Note: unit % is implicit; provide only the numeric part.

Worked cases, answers included:
Input line: Provide the documented inhibition with Neuropeptide Y receptor type 2 (Homo sapiens) (UniProt P49146) as the system for O=C(CC(O)(C(F)(F)F)C(F)(F)F)Nc1ccc(Cl)c(Cl)c1
Output line: 24.4

Input line: Provide the documented inhibition with Neuropeptide Y receptor type 2 (Homo sapiens) (UniProt P49146) as the system for C(=C\c1ccccc1)/CSc1nnc(-c2cccnc2)n1Cc1ccco1
Output line: 7.64

Input line: Provide the documented inhibition with Neuropeptide Y receptor type 2 (Homo sapiens) (UniProt P49146) as the system for Cc1cc(C)cc(OCC(=O)Nc2nc3ccc([N+](=O)[O-])cc3s2)c1
Output line: 1.9

Input line: Provide the documented inhibition with Neuropeptide Y receptor type 2 (Homo sapiens) (UniProt P49146) as the system for CN(C)CCNC(CC(=O)Nc1ccc(Cl)c(Cl)c1)C(=O)O (stereo unspecified)
Output line: 0.54

Input line: Provide the documented inhibition with Neuropeptide Y receptor type 2 (Homo sapiens) (UniProt P49146) as the system for COc1ccc(CCNC(=O)CSc2nnc(-c3cccc(F)c3)o2)cc1OC
Output line: -1.35

Input line: Provide the documented inhibition with Neuropeptide Y receptor type 2 (Homo sapiens) (UniProt P49146) as the system for COc1ccc(Cn2c(-c3ccc(Cl)cc3)c[n+]3ccccc23)cc1
Output line: 1.35

Now let's try a different one.
Input line: Provide the documented inhibition with Neuropeptide Y receptor type 2 (Homo sapiens) (UniProt P49146) as the system for COc1ccc(-c2oc3ncn(Cc4ccco4)c(=N)c3c2-c2ccc(OC)cc2)cc1
Output line: 18.1
